Assay Target: Galectin-1 (Homo sapiens)
pKd: −log10 of the molar value.
Endpoint Name: pKd

* COC(=O)Cn1cc(C[C@@H]2O[C@H](CO)[C@H](O)[C@H](O)[C@H]2O)nn1 [TRIAZOLYL GALACTOSIDE] | 2.30

----------
Assay Target: Galectin-1 (Homo sapiens, UniProt P09382)
Sequence (P09382 whole entry): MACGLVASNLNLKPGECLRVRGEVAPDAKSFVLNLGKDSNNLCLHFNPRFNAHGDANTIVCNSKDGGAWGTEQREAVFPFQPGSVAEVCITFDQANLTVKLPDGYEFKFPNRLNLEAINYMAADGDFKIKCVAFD
Assay Notes: Inhibition of recombinant galectin 1 in human O type red blood cells by hemagglutinination assay relative to galactose
Endpoint Name: Activity

• COC(=O)/C=C/C[C@@H]1O[C@H](CO)[C@H](O)[C@H](O)[C@H]1O = 10
• OC[C@@H]1O[C@H](O[C@@H]2[C@@H](O)[C@H](O)[C@@H](SCC#CC#CCS[C@@H]3O[C@H](CO)[C@@H](O[C@@H]4O[C@H](CO)[C@H](O)[C@H](O)[C@H]4O)[C@H](O)[C@H]3O)O[C@H]2CO)[C@@H](O)[C@H](O)[C@@H]1O = 2.6
